- Test system: MDA-MB-231
- Measurement notes: Antiproliferative activity against gemcitabine-resistant human MDA-MB-231 cells after 48 hrs by MTT assay
- Condition notes: MDA-MB-231, 48 h
pIC50: −log10 of the molar value.
Measurement type: pIC50

> print(dat)
                               given.smiles  experimental.target  measurement.type  experimental.result
1  Nc1ccn([C@@H]2O[C@H](CO)[C@@H](O)C2(F)F)c(=O)n1           MDA-MB-231             pIC50               < 5.00

----------
- Measurement notes: Acute toxicity in KM mouse assessed as survival at 300 mg/kg, ip measured on day 14 relative to vehicle-treated control
- Type: organism-based
- Design: dose 300 mg/kg, route intraperitoneal
- Condition notes: in vivo
Measurement type: survival at 14 day (%)

> print(dat)
                               given.smiles  experimental.result
1  Cc1cc(=O)oc2cc(OCCOc3no[n+]([O-])c3S(=O)(=O)c3ccccc3)ccc12                   30

----------
- Measurement notes: Acute toxicity in ip dosed KM mouse
- Type: organism-based
- Condition notes: in vivo
Measurement type: LD50 (mg/kg)

> print(dat)
                               given.smiles  unit.annotation  experimental.result
1  Cc1cc(=O)oc2cc(OCCOc3no[n+]([O-])c3S(=O)(=O)c3ccccc3)ccc12            mg/kg                  264

----------
- Tested on: A2780
- Measurement notes: Antiproliferative activity against human A2780 cells after 48 hrs by MTT assay
- Condition notes: A2780, 48 h
pIC50: −log10 of the molar value.
Measured pIC50 values are reported for all entries that follow.
Measurement type: pIC50

> print(dat)
                               given.smiles  experimental.result
1  Cc1cc(=O)oc2cc(OCCOc3no[n+]([O-])c3S(=O)(=O)c3ccccc3)ccc12                 7.85
2  O=S(=O)(c1ccccc1)c1no[n+]([O-])c1S(=O)(=O)c1ccccc1                 6.06
3  Cc1cc(=O)oc2cc(N(C)CCOc3no[n+]([O-])c3S(=O)(=O)c3ccccc3)ccc12                 6.02
4  Cc1cc(=O)oc2cc(NCCOc3no[n+]([O-])c3S(=O)(=O)c3ccccc3)ccc12                 5.61
5  CCc1cc(=O)c2ccc(OCCOc3no[n+]([O-])c3S(=O)(=O)c3ccccc3)cc2o1                 5.48

----------
- System: A549
- Measurement notes: cells
- Condition notes: Homo sapiens, A549, 48 h
Measurement type: IC50 (µM)

> print(dat)
                               given.smiles  measurement.type  unit.annotation  experimental.result
1  CCc1cc(=O)c2ccc(OCCCOc3no[n+]([O-])c3S(=O)(=O)c3ccccc3)cc2o1              IC50               µM                  0.4
2  Cc1cc(=O)oc2cc(OCC(=O)OCCOc3no[n+]([O-])c3S(=O)(=O)c3ccccc3)ccc12              IC50               µM                 6.92
3  Cc1cc(=O)oc2cc(NCCOc3no[n+]([O-])c3S(=O)(=O)c3ccccc3)ccc12              IC50               µM                 1.44
4  CCc1cc(=O)c2ccc(OCCOc3no[n+]([O-])c3S(=O)(=O)c3ccccc3)cc2o1              IC50               µM                 5.45
5  Cc1cc(=O)oc2cc(N(C)CCOc3no[n+]([O-])c3S(=O)(=O)c3ccccc3)ccc12              IC50               µM                 1.02
